Taken from patent US5091299A.

System: Polyphenol oxidase (tyrosinase)
Assay: Electrode specificity, response of the enzyme electrode to ten phenols
Type: biochemical
Settings: phenol 100 μM, single electrode, chloroform
MEASUREMENT NAME: Electrode response
Please state the value followed by its unit.

Examples from the recorded data:
INSERT INTO assay_data (molecule, measured_target, measurement_name, endpoint_result) VALUES
  ('O=Cc1cccc(O)c1 [m-hydroxy-benzaldehyde]', 'Polyphenol oxidase (tyrosinase)', 'Electrode response', '0.0 μA'),
  ('O=Cc1ccc(O)cc1 [p-hydroxy-benzaldehyde]', 'Polyphenol oxidase (tyrosinase)', 'Electrode response', '0.0 μA'),
  ('Cc1cccc(O)c1 [m-cresol]', 'Polyphenol oxidase (tyrosinase)', 'Electrode response', '4.7 μA'),
  ('Cc1ccccc1O [o-cresol]', 'Polyphenol oxidase (tyrosinase)', 'Electrode response', '0.0 μA'),
  ('Cc1ccc(O)c(O)c1 [4-methylcatechol]', 'Polyphenol oxidase (tyrosinase)', 'Electrode response', '6.7 μA'),
  ('Oc1ccc(Cl)cc1 [4-chlorophenol]', 'Polyphenol oxidase (tyrosinase)', 'Electrode response', '3.1 μA');

What measured Electrode response goes with Nc1ccc(O)cc1 [p-aminophenol] ? 2.4 μA

What measured Electrode response goes with Oc1ccccc1 [phenol] ? 6.4 μA

What measured Electrode response goes with Cc1ccc(O)cc1 [p-cresol] ? 5.6 μA

What measured Electrode response goes with Oc1ccccc1O [catechol] ? 8.6 μA
